Known AC50 of a selection of compounds
Target: Type-1 angiotensin II receptor (Homo sapiens); note: assay procedure not described here
Sequence (P30556 whole entry): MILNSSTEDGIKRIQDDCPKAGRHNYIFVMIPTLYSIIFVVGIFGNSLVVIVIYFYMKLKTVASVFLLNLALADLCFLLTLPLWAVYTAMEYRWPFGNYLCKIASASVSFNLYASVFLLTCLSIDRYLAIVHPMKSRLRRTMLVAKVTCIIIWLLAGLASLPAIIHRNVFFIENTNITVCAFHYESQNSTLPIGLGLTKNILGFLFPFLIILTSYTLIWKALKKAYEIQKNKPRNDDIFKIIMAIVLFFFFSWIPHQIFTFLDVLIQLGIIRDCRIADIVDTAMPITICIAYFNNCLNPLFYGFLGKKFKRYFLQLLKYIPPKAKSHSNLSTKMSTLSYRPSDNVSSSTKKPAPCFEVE

See these solved cases before continuing.
In [3]: df
Out[3]:
                                   compound  observed_measurement
0          CCC1(C2=CCCCCC2)C(=O)NC(=O)NC1=O               > 10 µM
1  C=C1C[C@@H]2[C@H](CC[C@]3(C)C(=O)CC[C@@H]23)[C@@]2(C)C=CC(=O)C=C12               > 30 µM
2    CN1C(=O)CC(=O)N(c2ccccc2)c2cc(Cl)ccc21               > 10 µM
3  CN1C(=O)CC(C)(c2ccccc2)C1=O (centres undefined) [METHSUXIMIDE]               > 10 µM
4        CC(N)Cc1ccccc1 (centres undefined)               > 30 µM
5                         Cc1c(O)c(=O)ccn1C               > 30 µM
6  CC(Cc1ccccc1)NCCC(c1ccccc1)c1ccccc1 (centres undefined)               > 30 µM
7                         O=C(O)CCCc1ccccc1               > 10 µM
8               O=C(CCCCCCC(=O)Nc1ccccc1)NO               > 30 µM
9  CCCCCCCCOc1ccccc1C(=O)Nc1ccc(C(=O)OCC[N+](C)(CC)CC)cc1 [OTILONIUM BROMIDE]                 20 µM

(Q) Entry COc1ccc2c(c1)C(=O)N(CCc1ccc(S(=O)(=O)NC(=O)NC3CCCCC3)cc1)C(=O)C2(C)C , system Type-1 angiotensin II receptor (Homo sapiens): what AC50 was measured?; note: assay procedure not described here
(A) > 30 µM

(Q) Try the compound C#CCN[C@@H]1CCc2ccccc21
(A) > 30 µM

(Q) Try the compound CN1CC[C@]23CCCC[C@H]2[C@H]1Cc1ccc(O)cc13
(A) > 10 µM

(Q) Try the compound CN1CCCC(n2nc(Cc3ccc(Cl)cc3)c3ccccc3c2=O)CC1 (centres undefined)
(A) > 30 µM

(Q) Try the compound CC/C=C\C/C=C\C/C=C\CCCCCCCC(=O)O
(A) > 30 µM

(Q) Try the compound CC(=O)O[C@]1(C(C)=O)CC[C@H]2[C@@H]3C[C@H](C)C4=CC(=O)CC[C@]4(C)[C@H]3CC[C@@]21C [MEDROXYPROGESTERONE ACETATE]
(A) > 30 µM

(Q) Try the compound C[C@@H]1O[C@@H]1P(=O)(O)O
(A) > 10 µM

(Q) Try the compound Oc1ncnc2[nH]ncc12
(A) > 30 µM

(Q) Try the compound CCCCCOC(=O)Nc1nc(=O)n([C@@H]2O[C@H](C)[C@@H](O)[C@H]2O)cc1F
(A) > 30 µM

Data origin, for the record: ChEMBL document CHEMBL5291721
